# reported IC50; entries follow
# target of assay: UniProt Q92918
# Sequence (Q92918 whole entry): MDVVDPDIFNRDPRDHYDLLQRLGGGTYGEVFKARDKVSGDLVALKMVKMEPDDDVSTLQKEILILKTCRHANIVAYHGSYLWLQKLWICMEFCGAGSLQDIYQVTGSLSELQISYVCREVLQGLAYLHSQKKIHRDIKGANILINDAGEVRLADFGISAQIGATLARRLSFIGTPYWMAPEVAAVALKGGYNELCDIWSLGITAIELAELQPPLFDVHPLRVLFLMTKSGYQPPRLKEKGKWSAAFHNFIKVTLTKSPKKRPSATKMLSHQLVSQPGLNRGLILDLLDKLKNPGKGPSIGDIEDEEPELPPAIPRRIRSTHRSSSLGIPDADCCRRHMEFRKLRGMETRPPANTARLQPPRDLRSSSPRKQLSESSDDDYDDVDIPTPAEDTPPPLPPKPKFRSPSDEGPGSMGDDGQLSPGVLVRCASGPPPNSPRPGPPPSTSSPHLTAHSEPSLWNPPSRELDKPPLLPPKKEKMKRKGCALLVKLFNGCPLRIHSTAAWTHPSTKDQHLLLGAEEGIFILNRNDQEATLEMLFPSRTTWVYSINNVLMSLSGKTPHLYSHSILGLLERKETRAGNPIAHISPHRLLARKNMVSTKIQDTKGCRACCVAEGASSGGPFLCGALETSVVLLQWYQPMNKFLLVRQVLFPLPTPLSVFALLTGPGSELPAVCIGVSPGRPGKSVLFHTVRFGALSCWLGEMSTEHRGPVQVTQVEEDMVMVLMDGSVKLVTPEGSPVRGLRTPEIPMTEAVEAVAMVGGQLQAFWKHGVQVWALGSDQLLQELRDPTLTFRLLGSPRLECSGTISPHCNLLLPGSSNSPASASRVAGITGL

Solved cases below.
| compound | IC50 |
| --- | --- |
| Cc1cc(Nc2ncc(Cl)c(Nc3ccccc3P(C)(C)=O)n2)cc2c1N1CCN(C3CN(C)C3)C[C@H]1CO2 [Compound 34S] | ≤ 1 nM |
| C=CC(=O)N1CCC(N2CCN3c4ccc(Nc5ncc(Cl)c(Nc6ccccc6P(C)(C)=O)n5)cc4OC[C@H]3C2)CC1 [Compound 22R] | ≤ 1 nM |
| CP(C)(=O)c1ccccc1Nc1nc(Nc2ccc3c(c2)OC[C@H]2CN(C4CCNCC4)CCN32)ncc1Cl [Compound 21R] | ≤ 1 nM |
| Cc1cc(Nc2ncc(Cl)c(Nc3ccccc3P(C)(C)=O)n2)cc2c1OC[C@H]1CNCCN21 [Compound 24R] | 1 to 10 nM |
| C=CC(=O)N1CCN2c3c(C)cc(Nc4ncc(Cl)c(Nc5ccccc5P(C)(C)=O)n4)cc3OC[C@H]2C1 [Compound 26R] | ≤ 1 nM |

Shifting focus to the compound that follows.
Looking up Cc1cc(Nc2ncc(Cl)c(Nc3ccccc3P(C)(C)=O)n2)cc2c1N1CCN(C3CCOCC3)C[C@H]1CO2 [Compound 31S] , I see its IC50 listed as ≤ 1 nM

---

# experiment description: Pharmacokinetic study in rats after intragastrical administration
# Format: in vivo
# condition notes: male, rat, plasma, po, SD rats, 4 mg/kg
parameter measured: half-life (h)
Report the figure in h without appending any unit label.

Looking up CN1CCN2c3ccc(Nc4ncc(Cl)c(Nc5ccccc5P(C)(C)=O)n4)cc3OC[C@H]2C1 , I see its half-life listed as 12.7

---

# target of assay: Ba/F3_EGFR del19/T790M/C797S cells (Homo sapiens, UniProt P00533, T790M/C797S, cells depend on it, form not given)
# Sequence (P00533 with tags, fused parts or gaps DEL746-750/T790M/C797S, form open): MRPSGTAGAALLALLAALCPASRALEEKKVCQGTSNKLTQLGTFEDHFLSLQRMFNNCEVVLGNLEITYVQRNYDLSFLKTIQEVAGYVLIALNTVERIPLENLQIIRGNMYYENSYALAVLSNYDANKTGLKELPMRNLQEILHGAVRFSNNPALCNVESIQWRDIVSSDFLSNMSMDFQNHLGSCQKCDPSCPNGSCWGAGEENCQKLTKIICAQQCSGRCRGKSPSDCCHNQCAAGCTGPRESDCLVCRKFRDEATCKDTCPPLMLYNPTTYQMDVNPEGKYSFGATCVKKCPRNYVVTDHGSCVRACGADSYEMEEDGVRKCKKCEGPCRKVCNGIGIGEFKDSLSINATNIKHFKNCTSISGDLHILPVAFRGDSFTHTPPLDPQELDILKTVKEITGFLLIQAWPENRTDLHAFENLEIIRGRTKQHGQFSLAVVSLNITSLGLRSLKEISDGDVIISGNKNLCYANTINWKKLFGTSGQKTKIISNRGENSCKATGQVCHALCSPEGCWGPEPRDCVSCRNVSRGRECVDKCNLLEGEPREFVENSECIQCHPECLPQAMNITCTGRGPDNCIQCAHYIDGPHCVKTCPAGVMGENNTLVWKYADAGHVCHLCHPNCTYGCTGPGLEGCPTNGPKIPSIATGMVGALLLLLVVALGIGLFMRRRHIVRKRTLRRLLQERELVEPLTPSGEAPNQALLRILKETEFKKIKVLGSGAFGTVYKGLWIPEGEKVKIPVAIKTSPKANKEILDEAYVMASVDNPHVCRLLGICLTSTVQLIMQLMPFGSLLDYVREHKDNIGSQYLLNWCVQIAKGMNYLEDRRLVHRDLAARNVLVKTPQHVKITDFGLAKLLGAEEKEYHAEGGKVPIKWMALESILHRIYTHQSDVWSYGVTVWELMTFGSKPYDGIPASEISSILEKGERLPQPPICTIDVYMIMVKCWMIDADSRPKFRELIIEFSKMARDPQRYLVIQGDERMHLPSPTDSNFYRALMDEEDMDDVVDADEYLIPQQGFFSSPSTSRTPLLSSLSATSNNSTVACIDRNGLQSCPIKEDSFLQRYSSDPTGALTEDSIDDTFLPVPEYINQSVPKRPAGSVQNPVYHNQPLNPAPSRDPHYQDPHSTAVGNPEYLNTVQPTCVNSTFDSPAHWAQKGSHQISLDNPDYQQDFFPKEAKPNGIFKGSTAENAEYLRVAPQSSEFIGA
# experiment description: Ba/F3_EGFR (del19-T790M-C797S) cell proliferation inhibition, CTG, method 1
# Format: cell-based
# condition notes: 700 cells/well, 72 h, read-out: Ba/F3_EGFR (del19-T790M-C797S) cell proliferation inhibition (IC50 value) Method 1
parameter measured: GI50

Solved cases below.
| compound | parameter measured | reported measurement |
| --- | --- | --- |
| Cc1cc(Nc2ncc(Cl)c(Nc3ccccc3P(C)(C)=O)n2)cc2c1OC[C@@H]1CNCCN21 [Compound 24S] | GI50 | 0.02 to 0.1 µM |
| CP(C)(=O)c1ccccc1Nc1nc(Nc2ccc3c(c2)OC[C@H]2CN(C4CCOCC4)CCN32)ncc1Cl | GI50 | 0.02 to 0.1 µM |
| CP(C)(=O)c1ccccc1Nc1nc(Nc2ccc3c(c2)OC[C@H]2CN(CC#N)CCN32)ncc1Cl | GI50 | 0.02 to 0.1 µM |
| Cc1cc(Nc2ncc(Cl)c(Nc3ccccc3P(C)(C)=O)n2)cc2c1OC[C@H]1CNCCN21 [Compound 24R] | GI50 | 0.02 to 0.1 µM |
| C=CC(=O)N1CCN2c3c(C)cc(Nc4ncc(Cl)c(Nc5ccccc5P(C)(C)=O)n4)cc3OC[C@H]2C1 [Compound 26R] | GI50 | < 0.02 µM |
| COC/C=C/C(=O)N1CCN2c3ccc(Nc4ncc(Cl)c(Nc5ccccc5P(C)(C)=O)n4)cc3OC[C@H]2C1 [Compound 20R] | GI50 | 0.02 to 0.1 µM |

Looking up Cc1cc(Nc2ncc(Cl)c(Nc3ccccc3P(C)(C)=O)n2)cc2c1N1CCN(C)C[C@@H]1CO2 [Compound 25R] , I see its GI50 listed as < 0.02 µM

Looking up CC(=O)N1CCC(N2CCN3c4c(C)cc(Nc5ncc(Cl)c(Nc6ccccc6P(C)(C)=O)n5)cc4OC[C@@H]3C2)CC1 [Compound 32S] , I see its GI50 listed as 0.02 to 0.1 µM
